Kindly state melting point for each of the entries shown.

Prompt: Requested field: melting point. Item: CC(C)(C)OC(=O)N1C(=O)C2(COc3cc4c(cc32)OCO4)c2c(Br)cccc21 (configuration not stated)
Response: 154 to 156 °C

Prompt: Follow-up entry: CCC(NC(=O)C(F)F)c1ccc(Cl)c2nc3n(c12)CCCN3c1c(Cl)cc(Cl)cc1Cl (configuration not stated)
Response: 211 to 213 °C

Prompt: Follow-up entry: "N#CCCNC(=O)c1cccc(-c2cccc3cn(Cc4cccc(C(F)(F)F)c4)nc23)c1"
Response: 174 to 175 °C

Prompt: Follow-up entry: "Cc1cc(C2=NNC(=O)Cc3cc4c(cc32)OCO4)ccc1N"
Response: 164 to 166 °C

Prompt: Follow-up entry: "CCOC(=O)CNC(=O)CCCCCNC(=O)c1ccc(F)cc1"
Response: 121 to 122 °C

Prompt: Follow-up entry: "COc1ccc(C(=O)Nc2cc([N+](=O)[O-])ccc2Cl)cc1OC"
Response: 231 to 232 °C

Prompt: Follow-up entry: "Nc1nc2c(s1)CCN(CC=Cc1ccsc1)CC2"
Response: 128 to 132 °C

Prompt: Follow-up entry: "O=C(NCCCl)Nc1ccc(CCCc2ccccc2OCc2ccccc2)cc1"
Response: 120 to 121 °C

Prompt: Follow-up entry: "COc1cccc([C@H]2O[C@H](CC(=O)Nc3cc4c(c(C(=O)O)c3)CCCC4)C(=O)N(CC(C)(C)CO)c3ccc(Cl)cc32)c1OC"
Response: 178 to 179 °C

Prompt: Follow-up entry: COc1cc2c(cc1Br)CC(C)OC2c1ccc([N+](=O)[O-])cc1 (configuration not stated)
Response: 128 to 129 °C

Prompt: Follow-up entry: "Nn1cccc1-c1ccccc1"
Response: 80 to 82 °C

Prompt: Follow-up entry: CCN1C[C@@H](O)[C@H](N(C)C(=O)c2ccc([N+](=O)[O-])cc2)C1 (relative stereo)
Response: 104 to 108 °C

Prompt: Follow-up entry: "Cc1nc(OCC#N)c(C#N)c(N2CCc3ccccc3CC2)n1"
Response: 68 to 74 °C

Prompt: Follow-up entry: "COc1cc2c(c(OC)c1OC)-c1ccc(O)cc1[C@@H](NC(C)=O)CC2"
Response: 157 °C

Prompt: Follow-up entry: "CC1(c2cccc(C3(O)CCCCC3)c2)OCCO1"
Response: 55 to 57 °C

Prompt: Follow-up entry: CC1CCCN(c2ccc(Cl)cc2C(C)C(C(N)=O)c2ccc(C(=O)O)cc2)C1 (configuration not stated)
Response: 208 to 210 °C

Prompt: Follow-up entry: "C=CCNC(=O)C=C(C)N"
Response: 143 to 144 °C

Prompt: Follow-up entry: COc1ccc(C2CCN(c3c(C)c(C)c4c(c3C)C(O)C(C)(C)O4)CC2)cc1OC (configuration not stated)
Response: 140 to 142 °C

Prompt: Follow-up entry: "COc1ccc(C2(C#Cc3cccc(NC(C)=O)c3)CCC(=O)CC2)cc1OC1CCCC1"
Response: 63 to 64 °C

Prompt: Follow-up entry: "CNC(=O)CCn1cnc2c(N)nc3ccccc3c21"
Response: > 260 °C

Prompt: Follow-up entry: "CC(=O)NCCc1c(-c2ccccc2)oc2ccc3c(c12)OCCO3"
Response: 192 °C

Prompt: Follow-up entry: "COc1ccc(/C(C)=C/c2ccc(C(=O)O)cc2)cc1C1(C)CCCCC1"
Response: 175 to 176 °C

Prompt: Follow-up entry: COc1ccc([C@@H]2CCCC[C@@H]2[N+](=O)[O-])cc1OC (racemic)
Response: 84 to 86.5 °C

Prompt: Follow-up entry: C=CC1CN(c2ncc(C(=O)N(C)c3cccc(C(F)(F)F)c3)c(N)n2)C(=O)N1 (configuration not stated)
Response: 203 to 204 °C

Prompt: Follow-up entry: Cc1c(N)c(C)c(C(C)C)c2c1CC(C)(CI)O2 (configuration not stated)
Response: 84 to 86 °C

Prompt: Follow-up entry: "Cc1nc2c(N)nc3ccccc3c2n1CCCNC(=O)C1CCCC1"
Response: 208 to 209 °C

Prompt: Follow-up entry: Cc1ccc(S(=O)(=O)N2CCCC2c2ccccc2F)cc1 (racemic)
Response: 143 °C

Prompt: Follow-up entry: CN1OCN=C1c1nn(-c2c(Cl)cc(C(F)(F)F)cc2Cl)c(N)c1S(=O)C(F)(F)F (configuration not stated)
Response: 165 to 167 °C

Prompt: Follow-up entry: "COc1ccc(Oc2ccccc2Cl)cc1C=O"
Response: 65 to 66 °C

Prompt: Follow-up entry: "O=C(N[C@H]1CCCNC1=O)c1cccc(F)c1"
Response: 164 to 166 °C

Prompt: Follow-up entry: "COc1cc(OC)cc(-c2ncn(C)c2-c2ccc3c(c2)NCCO3)c1"
Response: 175 to 178 °C

Prompt: Follow-up entry: "CNCCCCCCCCCCCO"
Response: 58 °C

Prompt: Follow-up entry: "CN1CCN(CC(=O)N2CC=C(c3cccc(C(F)(F)F)c3)n3ncc(C#N)c32)CC1"
Response: 178 to 180 °C

Prompt: Follow-up entry: "COc1ccc(N(CCC(=O)O)C(=O)Cl)cc1"
Response: 90 °C

Prompt: Follow-up entry: "O=C1c2c(c(=O)n3nc(-c4ccccc4)cc3n2Cc2ccccc2)CN1C1CCCCC1"
Response: 276 to 278 °C

Prompt: Follow-up entry: "CSC(=N[N+](=O)[O-])N(C)SC(Cl)(Cl)Cl"
Response: 75 to 78 °C

Prompt: Follow-up entry: "COc1ccc2nc(OC)cc(C)c2c1"
Response: 58 to 59 °C

---

Metric: melting point

Prompt: Requested field: melting point. Item: "O=C1CCCC2=C1C(c1ccc(S(=O)(=O)c3ccccc3)cc1)C1=C(CCCC1=O)N2"
Response: 260 °C

Prompt: Follow-up entry: "CCCCOc1c(CNC(=O)OC(C)(C)C)n(CC(C)C)c(=O)c2ccc(/C=C/C(=O)O)cc12"
Response: 207 to 209 °C

Prompt: Follow-up entry: "O=C(CCc1nnc(Nc2ccccc2Cl)o1)NC1CCN(Cc2ccc(F)c(F)c2)CC1"
Response: 162 to 163 °C

Prompt: Follow-up entry: CC(=O)SCC(Cc1ccccc1)C(=O)Nc1cc(C)cc(C(=O)O)c1C (stereo unspecified)
Response: 182 to 186 °C

Prompt: Follow-up entry: COc1ncccc1C(=O)NC1CNCCn2c1nc(-c1ccncn1)cc2=O (racemic)
Response: 236 to 238 °C

Prompt: Follow-up entry: "CC(=O)NCc1ccc(CN2CCN(c3nc(C)cc(C)n3)CC2)cc1"
Response: 127 to 128 °C

---

Metric: melting point

Prompt: Requested field: melting point. Item: "Cc1nc2nc(Cl)c(Cl)nc2s1"
Response: 58 to 60 °C

Prompt: Follow-up entry: O=[N+]([O-])c1ccc(CSc2cc(Cl)nc3c2ncn3C2OC(CO)C(O)C2O)cc1 (stereo not given)
Response: 162 to 165 °C

Prompt: Follow-up entry: CCN(CC)C(=O)C(C)c1cc(-c2ccccc2)nc2ccccc12 (stereo not given)
Response: 132 °C

Prompt: Follow-up entry: "Nc1cnccc1CCCOc1cccnc1Oc1cccc(Cl)c1"
Response: 140 to 142 °C

Prompt: Follow-up entry: "O=C(NCC1CCCCC1)c1c(Cl)ccc2nc(N3CCC(c4nnn[nH]4)CC3)ccc12"
Response: 252 to 255 °C

Prompt: Follow-up entry: "Nc1cnc(-c2ccccc2)nc1C(=O)O"
Response: 199 to 202 °C

Prompt: Follow-up entry: "CC(C)N(c1ccc(C(=O)Oc2ccccc2)c(Cl)c1)S(=O)(=O)c1ccccc1"
Response: 120 °C

Prompt: Follow-up entry: "COC(=O)CCc1cc2c(OC)cccc2n1Cc1ccccc1"
Response: 195 to 196 °C

Prompt: Follow-up entry: "Oc1ccc(C(=C(Cl)c2ccccc2)c2ccccc2)cc1"
Response: 127 to 129 °C

Prompt: Follow-up entry: O=C1NC(=O)C(Nc2ccc(CCNC[C@H](O)c3ccccc3)cc2)S1 (stereo not given in full)
Response: 55 °C

---

Metric: melting point

Prompt: Requested field: melting point. Item: "CO[C@H]1CC[C@H](N(C)C(=O)c2ccc3nonc3c2)CC1"
Response: 143 to 144 °C

Prompt: Follow-up entry: "O=C(O)c1cn(-c2ccc(F)cc2F)c2cc(N3CCC4(C3)OCCCO4)c(F)cc2c1=O"
Response: 168 to 170 °C

Prompt: Follow-up entry: "OCCSc1ccc(O)cc1"
Response: 70 °C

Prompt: Follow-up entry: "C=C(CS(=O)(=O)c1ccccc1)c1ccccc1"
Response: 105 °C

Prompt: Follow-up entry: COc1ccc(C2CN(c3cc(C)c4c(c3C)CC(C)(C)O4)CCO2)cc1 (stereo not drawn)
Response: 107 to 108 °C

Prompt: Follow-up entry: "Nc1ncnc2c1nc(O)n2Cc1ccc(F)cc1"
Response: 270 to 272 °C

Prompt: Follow-up entry: CCOCCn1c(C(=O)C2CCN(CCC3(c4ccccn4)CCN(C(=O)c4cc(OC)c(OC)c(OC)c4)C3)CC2)nc2ccccc21 (stereo not drawn)
Response: 50 to 55 °C

Prompt: Follow-up entry: "CCCc1c(N)c(C(C)=O)cc(C(C)=O)c1O"
Response: 138 to 139 °C
